biological target: EGFR (Homo sapiens); construct: endogenous in cells; host or cells: A431 cells (detergent lysate, anti-EGF-R Ab 108 immunoprecipitate); experiment: Inhibition of EGFR autophosphorylation (anti-EGF-R immunoprecipitate from A431 cells, EGF stimulation); type: biochemical; details: Table III; EGF stimulation; autophosphorylation 2 min at 4° C.; read-out: IC50 EGF
pIC50: −log10 of the molar value.
READOUT NAME: pIC50

Recorded results for 2 compounds are shown here.
>>> observed_value("COc1ccc(C=C(C#N)c2c[nH]c3ccccc23)cc1OC")
6.40
>>> observed_value("COc1ccc(C=C(C#N)c2cccnc2)cc1OC")
6.40

A: COc1ccc(C=C(C#N)c2ccccn2)cc1OC
B: COc1ccc(C=C(C#N)c2cn(S(=O)(=O)c3ccc([N+](=O)[O-])cc3)c3ccccc23)cc1OC
C: N#C/C(=C\c1cc(Cl)cc(Cl)c1)c1ccc[n+]([O-])c1
Arrange the 3 compounds by rising pIC50, starting with the smallest. In your reply, arrange the labels in the requested order.
B, A, C
(B: 4.70, A: 6.30, C: 7.00)

---

test system: DNA synthesis in serum (FCS)-stimulated cells; experiment: Inhibition of cell proliferation as measured by inhibition of DNA synthesis ([3H]thymidine incorporation), serum (10% FCS)-stimulated cells; type: cell-based; details: Table IV; 10% calf serum (FCS); [3H]thymidine incorporation halved
READOUT NAME: IC50 (nM)
Please respond with the number in nM and leave the unit unwritten.

>>> observed_value("CC(C)(C)c1cc(C=C(C#N)c2ccccn2)cc(C(C)(C)C)c1 [Example 4]")
500

As a next step, examine the molecule that follows.
Param item = N#C/C(=C\c1cc(Cl)cc(Cl)c1)c1ccc[n+]([O-])c1 [Example 2] ; retrieve measured IC50.
100

---

target: EGFR (Homo sapiens, UniProt P00533); construct: endogenous in cells; host or cells: A431 cells (detergent lysate, anti-EGF-R Ab 108 immunoprecipitate); assay: Inhibition of EGFR autophosphorylation (anti-EGF-R immunoprecipitate from A431 cells, EGF stimulation); type: biochemical; conditions: Table V; comparison with prior art compound C-1; same procedure as before; read-out: IC50, inhibition of EGFR autophosphorylation (Table V)
Sequence (P00533 25-1210): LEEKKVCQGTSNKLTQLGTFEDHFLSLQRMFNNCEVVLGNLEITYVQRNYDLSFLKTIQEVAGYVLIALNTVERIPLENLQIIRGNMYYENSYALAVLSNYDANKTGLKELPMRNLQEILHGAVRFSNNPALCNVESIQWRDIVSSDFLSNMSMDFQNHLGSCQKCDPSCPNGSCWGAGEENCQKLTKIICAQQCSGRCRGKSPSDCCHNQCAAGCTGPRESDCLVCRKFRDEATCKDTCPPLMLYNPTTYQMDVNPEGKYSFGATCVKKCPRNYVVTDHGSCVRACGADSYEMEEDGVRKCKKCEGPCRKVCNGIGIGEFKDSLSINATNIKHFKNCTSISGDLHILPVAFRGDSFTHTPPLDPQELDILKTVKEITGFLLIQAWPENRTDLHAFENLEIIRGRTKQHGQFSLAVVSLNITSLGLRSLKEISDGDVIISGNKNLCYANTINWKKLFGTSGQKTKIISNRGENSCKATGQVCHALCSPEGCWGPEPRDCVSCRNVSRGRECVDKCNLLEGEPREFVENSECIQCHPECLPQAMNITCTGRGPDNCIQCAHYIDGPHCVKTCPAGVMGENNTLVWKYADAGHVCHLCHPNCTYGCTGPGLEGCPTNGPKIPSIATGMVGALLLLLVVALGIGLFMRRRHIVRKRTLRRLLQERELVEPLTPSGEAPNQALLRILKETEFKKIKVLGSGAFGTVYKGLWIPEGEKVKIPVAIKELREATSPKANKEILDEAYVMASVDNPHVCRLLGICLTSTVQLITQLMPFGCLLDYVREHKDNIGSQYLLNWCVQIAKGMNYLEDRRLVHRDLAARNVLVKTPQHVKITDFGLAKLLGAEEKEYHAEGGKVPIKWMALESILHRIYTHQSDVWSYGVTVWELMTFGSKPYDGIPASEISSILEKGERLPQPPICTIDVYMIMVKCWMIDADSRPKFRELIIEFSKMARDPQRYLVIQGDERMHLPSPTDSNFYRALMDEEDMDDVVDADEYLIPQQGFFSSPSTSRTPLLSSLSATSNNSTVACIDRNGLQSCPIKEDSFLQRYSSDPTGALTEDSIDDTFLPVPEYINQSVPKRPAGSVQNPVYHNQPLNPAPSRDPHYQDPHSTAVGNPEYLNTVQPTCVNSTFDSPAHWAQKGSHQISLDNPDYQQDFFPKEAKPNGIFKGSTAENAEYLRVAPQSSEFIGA
pIC50: −log10 of the molar value.
READOUT NAME: pIC50

Recorded results for 2 molecules are shown here.
>>> observed_value("N#CC(=Cc1ccc(Cl)cc1Cl)c1cccnc1 [Example C-1, reference compound]")
"≤ 4.30"
>>> observed_value("N#C/C(=C\\c1cc(Cl)cc(Cl)c1)c1cccnc1")
5.70

As a next step, examine the molecule that follows.
Param item = `N#C/C(=C\c1cc(Cl)cc(Cl)c1)c1ccc[n+]([O-])c1` ; retrieve measured pIC50.
≤ 4.30

---

molecular target: PDGF receptor kinase; experiment: Inhibition of autophosphorylation, procedure repeated with PDGF stimulation; conditions: Table III
READOUT NAME: IC50 (µM)

>>> observed_value("COc1ccc(C=C(C#N)c2cccnc2)cc1OC")
30

A: COc1ccc(C=C(C#N)c2ccccn2)cc1OC
B: COc1ccc(C=C(C#N)c2c[nH]c3ccccc23)cc1OC
C: N#C/C(=C\c1cc(Cl)cc(Cl)c1)c1ccc[n+]([O-])c1
Arrange the 3 compounds by rising IC50, starting with the smallest. In your reply, arrange the labels in the requested order.
A, B, C
(A: 6 µM, B: 10 µM, C: 20 µM)
